Where do the numbers come from? From ChEMBL document CHEMBL3217539.

Test: Cytotoxicity against human HL7702 cells expressing wild type EGFR after 72 hrs by MTS assay
Assay type: ADME, cell-based
Settings: L02, 72 h
PARAMETER: IC50 (µM)
Numbers only; they are read as µM.

Request: Fill in IC50 for record C=CC(=O)Nc1cccc(N2C(=O)C3CCCCN3C(=O)c3cnc(Nc4ccc(N5CCN(C)CC5)cc4OC)nc32)c1 (centres undefined)
Result: 23

Request: Specify reported IC50 for the compound shown: C=CC(=O)Nc1cccc(N2C(=O)CN(c3ccccc3)C(=O)c3cnc(Nc4ccc(N5CCN(C)CC5)cc4OC)nc32)c1
Result: 1.71

Request: Determine its reported IC50: C=CC(=O)Nc1cccc(N2C(=O)C3CCCN3C(=O)c3cnc(Nc4ccc(N5CCN(C)CC5)cc4OC)nc32)c1 (centres undefined)
Result: 16.1

Request: Quickly give me recorded IC50 for C=CC(=O)Nc1cccc(N2C(=O)CN(Cc3ccccc3)C(=O)c3cnc(Nc4ccc(N5CCN(C)CC5)cc4OC)nc32)c1
Result: 17.5

Request: Please indicate IC50 recorded for C=CC(=O)Nc1cccc(Oc2nc(Nc3ccc(N4CCN(C)CC4)cc3OC)ncc2Cl)c1
Result: 9.15

Request: Please give the documented IC50 of C=CC(=O)Nc1cccc(N2C(=O)C(Cc3ccc(Cl)cc3)N(C)C(=O)c3cnc(Nc4ccc(N5CCN(C)CC5)cc4OC)nc32)c1 (centres undefined)
Result: 8.73

Request: Identify measured IC50 corresponding to C=CC(=O)Nc1cccc(N2C(=O)CN(C)C(=O)c3cnc(Nc4ccc(N5CCN(C)CC5)cc4OC)nc32)c1
Result: 44.5

Request: Item C=CC(=O)Nc1cccc(N2C(=O)C(Cc3ccc(F)cc3)N(C)C(=O)c3cnc(Nc4ccc(N5CCN(C)CC5)cc4OC)nc32)c1 (centres undefined) : provide IC50
Result: 13.7

Request: # return recorded IC50 for input C=CC(=O)Nc1cccc(N2C(=O)C(C)N(C)C(=O)c3cnc(Nc4ccc(N5CCN(C)CC5)cc4OC)nc32)c1 (centres undefined)
Result: 49.1

Request: Using known records, supply IC50 for C=CC(=O)Nc1cccc(N2C(=O)C(Cc3ccc(OC)cc3)N(C)C(=O)c3cnc(Nc4ccc(N5CCN(C)CC5)cc4OC)nc32)c1 (centres undefined)
Result: 16.2

Request: Let me know recorded IC50 for C=CC(=O)Nc1cccc(N2C(=O)C(c3ccccc3)N(C)C(=O)c3cnc(Nc4ccc(N5CCN(C)CC5)cc4OC)nc32)c1 (centres undefined) , thanks.
Result: 14.3

Request: Identify measured IC50 associated with C=CC(=O)Nc1cccc(N2C(=O)C(C(C)CC)N(C)C(=O)c3cnc(Nc4ccc(N5CCN(C)CC5)cc4OC)nc32)c1 (centres undefined)
Result: 15

Request: # return recorded IC50 for input C=CC(=O)Nc1cccc(N2C(=O)C(Cc3ccccc3)N(C)C(=O)c3cnc(Nc4ccc(N5CCN(C)CC5)cc4OC)nc32)c1 (centres undefined)
Result: 25.6

Request: Give recorded IC50. C=CC(=O)Nc1cccc(N2C(=O)C(C(C)C)N(C)C(=O)c3cnc(Nc4ccc(N5CCN(C)CC5)cc4OC)nc32)c1 (centres undefined)
Result: 28.2
